The values you see were collected from the supplement of paper PMC6089552.

- Test system: A673/TR/shEF
- ASSAY_METHOD_TEXT: cell viability (LOESS-normalised, relative to median of negative controls) (log2 ratio); higher = more viable cells (less compound effect), active = hit call of the paper (over 3 MAD below the median)
- CONDITIONS: 2.5 µM; library screen: screen1; EWS-FLI1 expression: low (doxycycline-induced shRNA knockdown); treatment time: 72 h
About 300 (9.4%) of roughly 3,200 compounds showed activity. The entries come from a sample that favours actives as a whole.
Label key: Fulfilled means cell viability (log2) under 0.08; Not fulfilled means cell viability (log2) of 0.08 or more.

COC(=O)/C=C/c1cc(O)ccc1O    Fulfilled
COc1cc(OC)c(C2NC(=S)NC(C)=C2C(=O)Nc2ccccc2Cl)cc1OC (configuration not stated)    Fulfilled
CC(C(=O)O)N1C(=O)C(=Cc2cccnc2)SC1=S (configuration not stated)    Fulfilled
C#CCCCCCCCCCCC[C@@H](O)C[C@@H](O)COC(C)=O    Fulfilled
CC(=O)N1CCN(c2nc(-c3ccccc3)c3cc(Br)ccc3n2)CC1    Not fulfilled

Quick check: cell viability (log2) of NCCCC(N)CC(=O)NCC1NC(=O)C(CO)NC(=O)C(N)CNC(=O)C(C2CCN=C(N)N2)NC(=O)/C(=C/NC(N)=O)NC1=O (configuration not stated) under 0.08?
Fulfilled

Given CCN(CC)S(=O)(=O)c1ccc(C(=O)N(CCC(=O)OC)c2ccccn2)cc1 , is recorded cell viability (log2) strictly lower than 0.08?
Not fulfilled

Given the entry NC[C@H](O)c1ccc(O)c(O)c1 , would its reported cell viability (log2) be below 0.08?
Not fulfilled

In the record for COc1cc2occ(-c3ccc(O)cc3)c(=O)c2c(OC)c1O , is cell viability (log2) less than 0.08?
Fulfilled

Hello, I'm reviewing records and need to know if cell viability (log2) of COc1ccccc1C1NC(=S)NC(C)=C1C(=O)Nc1cccc(Cl)c1 (configuration not stated) is below 0.08. Could you check?
Not fulfilled

---

- System: A673/TR/shEF
- ASSAY_METHOD_TEXT: cell viability (LOESS-normalised, relative to median of negative controls) (log2 ratio); higher = more viable cells (less compound effect), active = hit call of the paper (over 3 MAD below the median)
- CONDITIONS: 2.5 µM; library screen: screen2; EWS-FLI1 expression: low (doxycycline-induced shRNA knockdown); treatment time: 72 h
Screen size: about 3,200 compounds; about 300 (9.4%) showed activity. The full list was thinned out, with actives kept by preference.
ASSAY_ENDPOINT: cell viability (log2)
The answer should be a number; do not append a unit.

Guide cases for cell viability (log2), answers given:
N#C/C(=C\c1ccc(O)c(O)c1)C(=O)NCCCNC(=O)/C(C#N)=C/c1ccc(O)c(O)c1    0.0575
CCCCCCCCCCCCCCC[C@@H](O)[C@H](CO)NC(C)=O    0.124
CCOC([O-])=Nc1c[n+](N2CCOCC2)no1    0.116
COc1ccc2c(c1)c(CC(=O)Nc1ccc(NC(C)=O)cc1)c(C)n2C(=O)c1ccc(Cl)cc1    0.214
O=C(CCCCCCC(=O)Nc1ccccc1)NO    0.0743

Return cell viability (log2) for the following molecule: COc1ccc2c(c1)CC[C@@H]1[C@@H]2CC[C@]2(C)[C@@H](NCCCCCCN3C(=O)CCC3=O)CC[C@@H]12
0.108

Output measured cell viability (log2) for this item: COc1cccc2c1C(=O)c1c(O)c3c(c(O)c1C2=O)C[C@@](O)(C(C)=O)C[C@@H]3O[C@H]1C[C@H](N)[C@H](O)[C@H](C)O1
-0.371

Provide measured cell viability (log2) value, entry: CN(C)CCCN1c2ccccc2Sc2ccc(Cl)cc21
0.0664

Kindly indicate its recorded cell viability (log2). Item: Cc1cnc(C(=O)NCCc2ccc(S(=O)(=O)NC(=O)NC3CCCCC3)cc2)cn1
0.035

Return cell viability (log2) for the following molecule: COc1cc(Cc2cnc(N)nc2N)cc(OC)c1OC
-2.59

Quick one: give measured cell viability (log2) for O=S(=O)(NCCNC/C=C/c1ccc(Br)cc1)c1cccc2cnccc12
0.0705

---

Below, each entry is listed alongside its reported cell viability (log2).
- Test system: A673/TR/shEF
- ASSAY_METHOD_TEXT: cell viability (LOESS-normalised, relative to median of negative controls) (log2 ratio); higher = more viable cells (less compound effect), active = hit call of the paper (over 3 MAD below the median)
- CONDITIONS: 0.25 µM; library screen: screen1; EWS-FLI1 expression: high (no doxycycline); treatment time: 72 h
In all, about 3,200 compounds went through this assay and about 300 (9.4%) showed activity. The list comes from a sample in which actives are over-represented; it also holds close analogues and randomly drawn compounds.
Answer with the value's number alone.

COc1c(CC(=O)c2cc3c(cc2O)OC(C)(C)C(O)C3)ccc2c1C=CC(C)(C)O2 (stereo not given)    0.0608

Give the value of cell viability (log2) reported for the following: CCCCCCCCCCC[C@@H](C[C@@H]1OC(=O)[C@H]1CCCCCC)OC(=O)[C@H](CC(C)C)NC=O
-0.0226

Consider the molecule COc1ccc(-c2c(OC)c3c(OC)c4c(cc3oc2=O)OC(C)(C)C=C4)cc1 . State its measured cell viability (log2).
0.0786

Respond only with cell viability (log2) recorded for COc1cc2c(cc1OC)[C@@H]1C(=O)c3ccc4c(c3O[C@@H]1CO2)C=CC(C)(C)O4
-0.591

Quote cell viability (log2) reported for C=CCN1C(=O)C(=C2C(=O)N(C)c3ccccc32)SC1=S please.
0.145

---

- System: A673/TR/shEF
- ASSAY_METHOD_TEXT: cell viability (LOESS-normalised, relative to median of negative controls) (log2 ratio); higher = more viable cells (less compound effect), active = hit call of the paper (over 3 MAD below the median)
- CONDITIONS: 0.25 µM; library screen: screen1; EWS-FLI1 expression: high (no doxycycline); treatment time: 72 h
In all, about 3,200 compounds went through this assay and about 300 (9.4%) showed activity. For the sample, actives were picked, then their nearest neighbours and some compounds at random.
Entries and their cell viability (log2) values follow.
Write no unit; give the number alone.

Worked examples, 4 molecules total:
CC(=O)OC1CC[C@@]2(C)C(CC[C@]3(C)C2CCC2C4CC(C)(C)CCC4(C(=O)O)CC[C@]23C)C1(C)C (stereo not given in full)    0.0992
CCOc1ccc(C(=O)Nc2ccc(NC(=O)CC)cc2)cc1Cl    0.102
NC(=O)c1ncn([C@@H]2O[C@H](CO)[C@@H](O)[C@H]2O)c1O    0.115
CCOc1ccc(C(=O)Nc2cccc(OC)c2)cc1Cl    0.0358

Note: attention shifts to another entry.
For the molecule Nc1ccn([C@@H]2O[C@H](CO)[C@@H](O)[C@H]2O)c(=O)n1 , give its measured cell viability (log2) value.
0.138

---

- System: A673/TR/shEF
- ASSAY_METHOD_TEXT: cell viability (LOESS-normalised, relative to median of negative controls) (log2 ratio); higher = more viable cells (less compound effect), active = hit call of the paper (over 3 MAD below the median)
- CONDITIONS: 25 µM; library screen: screen3; EWS-FLI1 expression: low (doxycycline-induced shRNA knockdown); treatment time: 72 h
Hit rate of the full screen: of about 3,200 compounds, about 300 (9.4%) showed activity. The entries come from a sample that favours actives as a whole.
Quick reference: cell viability (log2) of the listed items.
Just the number.

Consider the worked cases shown below.
Nc1ccccc1NC(=O)c1ccc(CNc2nccc(-c3cccnc3)n2)cc1    -1.08
CN(Cc1cnc2nc(N)nc(N)c2n1)c1ccc(C(=O)N[C@@H](CCC(=O)O)C(=O)O)cc1    0.0291
Cc1nc(Nc2ncc(C(=O)Nc3c(C)cccc3Cl)s2)cc(N2CCN(CCO)CC2)n1    -1.33
CNC(=O)c1ccccc1Sc1ccc2c(/C=C/c3ccccn3)n[nH]c2c1    -0.0147
CC(C)n1c(/C=C/C(O)CC(O)CC(=O)O)c(-c2ccc(F)cc2)c2ccccc21 (stereo not drawn)    -1.87
CC[C@H](CO)Nc1nc(NCc2ccccc2)c2ncn(C(C)C)c2n1    0.0206

// fetch cell viability (log2) given entry CCC(C)[C@H]1O[C@]2(CC[C@@H]1C)CC1C[C@@H](C/C=C(\C)[C@@H](O[C@H]3C[C@H](OC)[C@@H](OC4C[C@H](OC)[C@@H](O)[C@H](C)O4)[C@H](C)O3)[C@@H](C)/C=C/C=C3\CO[C@@H]4[C@H](O)C(C)=C[C@@H](C(=O)O1)[C@]34O)O2.CO[C@H]1CC(O[C@H]2[C@H](C)O[C@@H](O[C@@H]3/C(C)=C/C[C@@H]4CC(C[C@]5(CC[C@H](C)[C@@H](C(C)C)O5)O4)OC(=O)[C@@H]4C=C(C)[C@@H](O)[C@H]5OC/C(=C\C=C\[C@@H]3C)[C@]54O)C[C@@H]2OC)O[C@@H](C)[C@@H]1O (stereo partly drawn)
-1.99

Retrieve cell viability (log2) measured for C[C@H]1COC2=C1C(=O)C(=O)c1c2ccc2c1CCCC2(C)C and print it.
-0.308

Recall and state the measured cell viability (log2) for CCCS(=O)(=O)Nc1ccc(F)c(C(=O)c2c[nH]c3ncc(-c4ccc(Cl)cc4)cc23)c1F .
0.0931
